Molecular target: T1, streptavidin (UniProt P22629 37-163, limits assumed)
T1 construct: The same protein was used free (EMSA, Biacore, SBIA) and immobilized on a matrix or plate; also called immobilized streptavidin; Ultralink immobilized streptavidin plus
T1 sequence (P22629 37-163 limits assumed): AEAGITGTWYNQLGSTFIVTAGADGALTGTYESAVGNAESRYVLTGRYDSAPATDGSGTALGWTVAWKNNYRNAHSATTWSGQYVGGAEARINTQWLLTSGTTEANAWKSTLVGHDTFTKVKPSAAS
Test: streptavidin column-binding assay, 35S DNA-tagged peptide on immobilized streptavidin, biotin elution
Where no end group is shown, it is not given here. The star is where a group is joined. puromycin = COc1ccc(C[C@H](N*)C(=O)N[C@H]2[C@@H](O)[C@H](n3cnc4c(N(C)C)ncnc43)O[C@@H]2CO)cc1; DNA oligonucleotide = not defined here
Recorded Metric: % binding and eluting (%)
Value expressed in %; do not type the unit.

Worked examples, 5 binders total:
binder="SB3 (C-terminus joined through puromycin to a short DNA oligonucleotide (DNA-tagged peptide); 35S-methionine label, also called peptide SB3) peptide: MTRRPTASSSSCVRHLLLRQGEHGHQALEDRDKARHVRLVEGDVEVLGGLDRLARARHEALHPQAGLVHLPLHGGDLGGHLRLVLEAHPQGDRLGLAVHHH" recorded_metric="% binding and eluting" units=% experimental_value=20
binder="SB7 (C-terminus joined through puromycin to a short DNA oligonucleotide (DNA-tagged peptide); 35S-methionine label, also called peptide SB7) peptide: MDEKTHWFGTLNSFPTHWMSAVGNGKIDCSFNMNLSLNHWLSSGHPDGALDDQLHPQGDALVGRDDGVVQALRLEGQHQHRRLAQRRADRHRQLVWRLPPS" recorded_metric="% binding and eluting" units=% experimental_value=28
binder="SB1 (C-terminus joined through puromycin to a short DNA oligonucleotide (DNA-tagged peptide); 35S-methionine label, also called peptide SB1; clone SB1) peptide: MDEKTHCTISMNGAVPLVPHHHPQGDPLRLLHRPQPALLVRHPQGDLVALVEHHEGVDRGLVALPELHAEELGEPVGDLVQGPVEQVQGVVDALVWRLPPS" recorded_metric="% binding and eluting" units=% experimental_value=86
binder="SB6 (C-terminus joined through puromycin to a short DNA oligonucleotide (DNA-tagged peptide); 35S-methionine label, also called peptide SB6) peptide: MDEKTHWLNNFEELLARLDGLREGEDHPLVLRHHPQGDGLLDQPLGRHRALDGEVREGDRPLDQGGEEDLGALVDDDGEVLDGLVHVGVHVHDPLVCGCHHH" recorded_metric="% binding and eluting" units=% experimental_value=49
binder="SB4 (C-terminus joined through puromycin to a short DNA oligonucleotide (DNA-tagged peptide); 35S-methionine label, also called peptide SB4) peptide: MDEKTHWGISTWRGEPLLHHPQAGRLPLDRRRARHRRILGAEPGGVDHGLRLELLDDHRPLVPDHHPQRGPLQRGDLPQVVPLVRLRHAHVLGLGLAAATIT" recorded_metric="% binding and eluting" units=% experimental_value=49

The binder listed as SB8 (C-terminus joined through puromycin to a short DNA oligonucleotide (DNA-tagged peptide); 35S-methionine label, also called peptide SB8) peptide: MDEKTHCTIELNFSFTHWKLHHHPQGDALLDDGVRPHHPLADEGGGLDQGLGHRRGVVAERLARRDPEVLEGLVERHRGLVPRLRHGGERHAEPLVWRLPPS has a reported % binding and eluting of 27

The binder listed as SB5 (C-terminus joined through puromycin to a short DNA oligonucleotide (DNA-tagged peptide); 35S-methionine label, also called peptide SB5) peptide: MDEKTHWVNVYHPQGDLLVRGHGHDVEALHDQGLHQLDLLVGPPPEVVRALRGEVLGGLRRLVPLDHPQGEALDQARQRPQHLLELHHRALPPALVWRLPPS has a reported % binding and eluting of 72

The binder listed as SB2 (C-terminus joined through puromycin to a short DNA oligonucleotide (DNA-tagged peptide); 35S-methionine label, also called peptide SB2; clone SB2) peptide: MDEKTHCFHPGDHLVRLVEELQALAEGLQRQGGRQPHRLPRRRPHHLQLLLDEAHPQAGPLRERAHQVDGRLLLQHHPQGDRLLQQPQDHPLELVWRLPPS has a reported % binding and eluting of 48

The binder listed as MDEAHPQAGPVDQADARLVQQGALQHHPQGDRMMSGGCKLGTGY-{puromycin-DNA oligonucleotide} (reading uncertain; also: C-terminus joined through puromycin to a short DNA oligonucleotide (DNA-tagged peptide), 35S-methionine label, also called non-selected clone; control peptide) [Non-selected peptide with two HPQ motifs spaced by 19 residues] has a reported % binding and eluting of 0.16
